# Test system: Calu-3
# Protocol: cell viability relative to DMSO; higher = less toxic
# Protocol conditions: 72 h; 1 nM
Measured endpoint: cell viability (%)
Write down the numeric answer in % and omit the unit.

Answered cases to consult:
| Compound | cell viability / % |
| --- | --- |
| Nc1n[nH]c2nc3ccccc3nc12 | 98.3 |
| Nc1nc2c(ncn2[C@@H]2O[C@H](CO)[C@@H](O)[C@H]2O)c(=O)[nH]1 | 96 |
| Oc1nc(-c2ccc(C(F)(F)F)cc2)nc2c1CSCC2 | 110 |
| Cc1ccc(S(=O)(=O)Nc2nc3ccccc3nc2Nc2ccc3nsnc3c2)cc1 | 93.3 |

Input: What measured cell viability goes with CCOC(=O)OC(C)OC(=O)[C@@H]1N2C(=O)[C@@H](NC(=O)[C@H](N)c3ccccc3)[C@H]2SC1(C)C (stereo partly drawn) ?
Output: 94.1

Input: Which measured cell viability value corresponds to CNC[C@H](O)[C@@H](O)[C@H](O)[C@H](O)CO ?
Output: 108

Input: Look up cell viability: Cc1ccc(Cl)cc1N(CC(=O)Nc1c(F)cccc1F)S(C)(=O)=O
Output: 110

Input: Requested field: cell viability. Item: COc1ccccc1Oc1c(NS(=O)(=O)c2ccc(C)cn2)nc(-c2ccncc2)nc1OC
Output: 85.6

Input: Dear colleague, I am looking for the recorded cell viability of the following compound: COc1ccccc1OCC(O)CO (stereo not drawn)
Output: 99.2

###

# Tested on: Calu-3
# Protocol: cell viability relative to DMSO; higher = less toxic
# Protocol conditions: 72 h; 10000 nM
Measured endpoint: cell viability
Report the figure along with its unit, number first.

Examples with their reported cell viability follow.
| Molecule | cell viability |
| --- | --- |
| O=C(NO)c1ccc2[nH]c(=O)c(CCCc3ccccc3)nc2c1 | 62% |
| O=C1NCCc2[nH]c(-c3ccncc3)cc21 | 53.6% |
| CC(=O)OCC1=C(C(=O)O)N2C(=O)[C@@H](NC(=O)CSc3ccncc3)[C@H]2SC1 | 97.7% |

Input: Need cell viability, item CN1CCCN=C1COC(=O)C(O)(c1ccccc1)C1CCCCC1 (stereo not drawn)
Output: 94.7%

Input: Need cell viability of CN(C)C(=O)COC(=O)Cc1ccc(OC(=O)c2ccc(NC(=N)N)cc2)cc1 [camostat-mesilate] , thanks.
Output: 103%

Input: Quick one: cell viability of CC(=O)OCC(=O)[C@@]12N=C(C)O[C@@H]1C[C@H]1[C@@H]3CCC4=CC(=O)C=C[C@]4(C)[C@H]3[C@@H](O)C[C@@]12C ?
Output: 93.1%

Input: Sample CCCC(C(=O)OCCN(CC)CC)(c1ccccc1)c1ccccc1 — what was its cell viability?
Output: 99.6%

Input: Recorded cell viability of CC(=O)OCC(=O)[C@@]12OC3(CCCC3)O[C@@H]1C[C@H]1[C@@H]3CCC4=CC(=O)C=C[C@]4(C)[C@@]3(F)[C@@H](O)C[C@@]12C [amcinonide] , please.
Output: 97%

###

# Test system: Calu-3
# Protocol: cell viability relative to DMSO; higher = less toxic
# Protocol conditions: 72 h; 100 nM
A collection of molecules and their measured cell viability
# number only, unit % dropped from output

These recorded examples may help you get a feel for the data.
| Molecule | cell viability (%) |
| --- | --- |
| COc1c2ccoc2cc2oc(=O)ccc12 [bergapten] | 108 |
| OC(c1ccc(-c2ccc(CN3CCN(Cc4ccncc4)CC3)cc2)c(F)c1)(C(F)(F)F)C(F)(F)F [SR-2211] | 93.6 |
| Oc1cc(O)c(Cl)cn1 [gimeracil] | 104 |
| CCN(CC)CCOC(=O)C1(c2ccc([N+](=O)[O-])cc2)CCCC1 [nitrocaramiphen] | 96.5 |
| OC[C@H]1NC[C@@H](O)[C@@H](O)[C@@H]1O [1-deoxymannojirimycin] | 97 |
| COc1cc(C(C)=O)ccc1OCCCN1CCC(c2noc3cc(F)ccc23)CC1 [iloperidone] | 104 |

Could you now look at the following molecule, please?
Input: # cell viability lookup, item CC(=O)Nc1nc2c(Oc3cc(-c4ccc(C(F)(F)F)cc4)ncn3)cccc2s1 [AMG-517]
Output: 100

###

# Tested on: Caco-2
# Protocol: cell viability relative to DMSO; higher = less toxic
# Protocol conditions: 72 h; 1 nM
Entries and their measured cell viability follow.
# output: number + unit

Input: What does the data say about its cell viability? Entry: CC(C)N(CCNC(=O)CN1CCCC1=O)C(C)C [pramiracetam]
Output: 94.6%

Input: // lookup cell viability for O=S(=O)(c1ccccc1)N(CC(F)(F)F)c1ccc(C(O)(C(F)(F)F)C(F)(F)F)cc1
Output: 96%

Input: For the compound Cc1ccc(Sc2cncc3sc(C(N)=O)cc23)cc1 , what cell viability is on record?
Output: 97.7%

Input: What does the record list as cell viability for CN1CCC(=C2c3ccccc3CCn3c(C=O)cnc32)CC1 [alcaftadine] ?
Output: 98.1%

Input: Would you kindly share the measured cell viability for Cc1ccnc2c1CCCC2C(N)=S (centres undefined) [isotiquimide] ?
Output: 106%

Input: Requested field: cell viability. Item: CC1=C(CC(=O)O)c2cc(F)ccc2/C1=C\c1ccc(S(C)(=O)=O)cc1 [exisulind]
Output: 96.4%

Input: // query cell viability value for entry COc1ccccc1OCC(O)CO (centres undefined) [guaifenesin]
Output: 102%

Input: Give the measured cell viability of OC(c1ccc(-c2ccc(CN3CCN(Cc4ccncc4)CC3)cc2)c(F)c1)(C(F)(F)F)C(F)(F)F [SR-2211] .
Output: 113%

Input: Given the entry Oc1nc(-c2ccc(C(F)(F)F)cc2)nc2c1CSCC2 [XAV-939] , report its measured cell viability.
Output: 103%

Input: What value of cell viability has been recorded for this entry: CCCCCCCC/C=C\CCCCCCCC(=O)NCc1ccc(O)c(OC)c1 [olvanil]
Output: 97.2%

Input: Record request: cell viability value, item COCCN1CCN(Cc2ccc(-c3n[nH]c4c3C(=O)c3c(NC(=O)NN5CCOCC5)cccc3-4)cc2)CC1
Output: 97.9%

Input: State the recorded cell viability for this entry: CCCCCCCCCCCCCCCc1cccc(OCC(=O)NCCO)c1 [PDP-EA]
Output: 105%

Input: Request the reported cell viability associated with C/C=C/c1cc(OC)c(OC)cc1OC [alpha-asarone]
Output: 87.7%

Input: I would be grateful if you could share the reported cell viability for C=CC(=O)N1CCC[C@@H](n2nc(-c3ccc(Oc4ccccc4)cc3)c3c(N)ncnc32)C1 [ibrutinib] .
Output: 103%

###

# System: Caco-2
# Protocol: cell viability relative to DMSO; higher = less toxic
# Protocol conditions: 72 h; 1 nM
Measured endpoint: cell viability (%)
Numbers only here, please. The scale is %.

See these solved cases before continuing.
| Compound | Measured endpoint | U | Reported measurement |
| --- | --- | --- | --- |
| CCn1cc(-c2ccnc3[nH]c(-c4cccc(CN(C)C)c4)cc23)c(-c2ccc(NC(=O)N(C)C)cc2)n1 | cell viability | % | 96.3 |
| CC(=O)OCC(=O)[C@@]12OC3(CCCC3)O[C@@H]1C[C@H]1[C@@H]3CCC4=CC(=O)C=C[C@]4(C)[C@@]3(F)[C@@H](O)C[C@@]12C [amcinonide] | cell viability | % | 104 |
| CCCCS(=O)(=O)N[C@@H](Cc1ccc(OCCCCC2CCNCC2)cc1)C(=O)O | cell viability | % | 94 |

Input: Given the compound C[C@]1(COc2ccc(N3CCC(Oc4ccc(OC(F)(F)F)cc4)CC3)cc2)Cn2cc([N+](=O)[O-])nc2O1 , what is its reported cell viability?
Output: 103

###

Readings of cell viability for the listed compounds
# Test system: Vero E6
# Protocol: cell viability relative to DMSO; higher = less toxic
# Protocol conditions: 72 h; 10000 nM
Answer in %, number only, no unit symbol.

| Compound | Measured endpoint | U | Reported measurement |
| --- | --- | --- | --- |
| COc1cc(C(=O)N2CCC(N3CCN(C)CC3)CC2)ccc1Nc1ncc2c(n1)N(C)c1ccccc1C(=O)N2C | cell viability | % | 13.5 |

Then this compound:
Input: Need cell viability of NS(=O)(=O)OC[C@@H]1C[C@@H](n2ccc3c(N[C@H]4CCc5ccccc54)ncnc32)C[C@@H]1O , thanks.
Output: 24.3

###

# Tested on: U2OS
# Protocol: drug sensitivity score (DSS) for viability; higher = more toxic; extreme values may be limits of the assay
# Protocol conditions: 72 h
Measured endpoint: drug sensitivity score
Lab note: jot down the number only; don't add units.

Worked examples follow.
| Molecule | drug sensitivity score |
| --- | --- |
| Cc1cccc(C)c1NC(=O)[C@@H](C)N [tocainide] | 0 |
| NC[C@@](O)(c1ccc(Cl)cc1)c1ccc(-c2cn[nH]c2)cc1 | 3.9 |
| COc1cc2c(Oc3ccc(NC(=O)C4(C(=O)Nc5ccc(F)cc5)CC4)cc3F)ccnc2cc1OCCCN1CCOCC1 [foretinib] | 9.3 |
| NCC(CC(=O)O)c1ccc(Cl)cc1 (stereo not drawn) [baclofen] | 0 |

Input: Notebook: pull reported drug sensitivity score for U2OS, entry N#CC(c1ccnc(OCc2ccc(CN3CCOCC3)cc2)n1)c1nc2ccccc2s1 (stereo not drawn) [PGL5001]
Output: 0

Input: Record lookup: for U2OS, what drug sensitivity score belongs to CC(=O)NC1N=C(c2ccccc2)c2ccccc2NC1=O (stereo not drawn) ?
Output: 0

Input: I'm curious: which drug sensitivity score was measured for C=CCN1CC[C@]23c4c5ccc(O)c4O[C@H]2[C@@H](OCCOCCOCCOCCOCCOCCOCCOC)CC[C@@]3(O)[C@H]1C5 [naloxegol] tested on U2OS?
Output: 0

Input: Can you look up drug sensitivity score on U2OS for COc1cc(C(=O)N2CCC(N3CCN(C)CC3)CC2)ccc1Nc1ncc2c(n1)N(C)c1ccccc1C(=O)N2C [LRRK2-IN-1] ?
Output: 4.2
